The origin of these recorded values is paper PMC5700166.

- TARGET OF ASSAY: GST-Nv-NF-kB (Ser allele) (Nematostella vectensis, UniProt A7UNT2 2-411)
- Sequence: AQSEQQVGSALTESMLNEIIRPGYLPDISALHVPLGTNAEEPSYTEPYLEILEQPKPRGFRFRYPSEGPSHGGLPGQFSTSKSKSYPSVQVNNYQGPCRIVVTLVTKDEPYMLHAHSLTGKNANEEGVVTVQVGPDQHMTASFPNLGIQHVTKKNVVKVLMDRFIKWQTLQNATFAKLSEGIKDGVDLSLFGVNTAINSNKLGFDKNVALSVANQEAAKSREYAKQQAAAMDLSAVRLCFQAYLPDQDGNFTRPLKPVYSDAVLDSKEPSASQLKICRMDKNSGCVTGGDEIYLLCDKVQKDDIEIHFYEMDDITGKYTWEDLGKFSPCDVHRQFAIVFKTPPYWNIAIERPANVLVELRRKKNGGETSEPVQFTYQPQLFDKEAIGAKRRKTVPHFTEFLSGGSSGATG
- PROTOCOL DESCRIPTION: protein-binding microarray (PBM); PBM: ~300 nM protein, 6 mM HEPES pH 7.8, 80 mM KCl, 0.5 mM EDTA, 0.5 mM EGTA, 6% glycerol, 35 ng/ul poly-dIdC, 1% milk, 1 h, room temperature; high values mean tight binding
- EXPERIMENTAL SETUP: dsDNA, one strand shown
MEASURED ATTRIBUTE: binding signal (z-score)
Give bare numbers, in z-score.

Would you please look over these solved cases?
{"SEQUENCE CONTENT": "CCGATTAACATCAGGGAAAACCATGATGTTAATCGGGTCTTGATTCGCTTGACGCTGCTG", "TARGET OF ASSAY": "GST-Nv-NF-kB (Ser allele) (Nematostella vectensis, UniProt A7UNT2 2-411)", "binding signal / z-score": 6.37}
{"SEQUENCE CONTENT": "CCGATTAACATCACAAAAATCCCTGATGTTAATCGGGTCTTGATTCGCTTGACGCTGCTG", "TARGET OF ASSAY": "GST-Nv-NF-kB (Ser allele) (Nematostella vectensis, UniProt A7UNT2 2-411)", "binding signal / z-score": 5.52}
{"SEQUENCE CONTENT": "CCGATTAACATCACCCACGAGGGTGATGTTAATCGGGTCTTGATTCGCTTGACGCTGCTG", "TARGET OF ASSAY": "GST-Nv-NF-kB (Ser allele) (Nematostella vectensis, UniProt A7UNT2 2-411)", "binding signal / z-score": 1.02}
{"SEQUENCE CONTENT": "CCGATTAACATCAGATGTCCCCCTGATGTTAATCGGGTCTTGATTCGCTTGACGCTGCTG", "TARGET OF ASSAY": "GST-Nv-NF-kB (Ser allele) (Nematostella vectensis, UniProt A7UNT2 2-411)", "binding signal / z-score": 4.47}

Next up:
Fill in binding signal for CCGATTAACATCAGGGAGCCCCCTGATGTTAATCGGGTCTTGATTCGCTTGACGCTGCTG tested with GST-Nv-NF-kB (Ser allele) (Nematostella vectensis, UniProt A7UNT2 2-411). 3.69

* * *

- TARGET OF ASSAY: GST-Nv-NF-kB (Ser allele) (Nematostella vectensis, UniProt A7UNT2 2-411)
- Sequence: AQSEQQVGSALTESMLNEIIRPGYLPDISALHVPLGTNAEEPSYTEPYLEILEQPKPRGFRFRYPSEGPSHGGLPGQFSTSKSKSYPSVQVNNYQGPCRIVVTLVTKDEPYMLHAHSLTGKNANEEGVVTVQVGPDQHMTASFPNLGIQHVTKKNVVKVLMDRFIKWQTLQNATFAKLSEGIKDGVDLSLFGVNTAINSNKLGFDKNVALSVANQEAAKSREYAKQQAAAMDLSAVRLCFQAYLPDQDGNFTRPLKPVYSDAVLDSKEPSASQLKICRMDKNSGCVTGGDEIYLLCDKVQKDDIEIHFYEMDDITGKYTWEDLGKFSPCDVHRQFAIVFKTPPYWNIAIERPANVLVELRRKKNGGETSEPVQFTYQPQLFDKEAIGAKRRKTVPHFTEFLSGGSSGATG
- PROTOCOL DESCRIPTION: protein-binding microarray (PBM); PBM: ~300 nM protein, 6 mM HEPES pH 7.8, 80 mM KCl, 0.5 mM EDTA, 0.5 mM EGTA, 6% glycerol, 35 ng/ul poly-dIdC, 1% milk, 1 h, room temperature; high values mean tight binding
- EXPERIMENTAL SETUP: dsDNA, one strand shown
Labelling: binding signal reported below 4 z-score becomes condition met; at or above becomes condition not met.

{"SEQUENCE CONTENT": "CCGATTAACATCAATATTTACCCTGATGTTAATCGGGTCTTGATTCGCTTGACGCTGCTG", "ASSIGNED CATEGORY": "condition not met"}
{"SEQUENCE CONTENT": "CCGATTAACATCAGGGAATCTCATGATGTTAATCGGGTCTTGATTCGCTTGACGCTGCTG", "ASSIGNED CATEGORY": "condition met"}
{"SEQUENCE CONTENT": "CCGATTAACATCAGGGAAAGAAATGATGTTAATCGGGTCTTGATTCGCTTGACGCTGCTG", "ASSIGNED CATEGORY": "condition met"}
{"SEQUENCE CONTENT": "CCGATTAACATCAGTTCCCCCCATGATGTTAATCGGGTCTTGATTCGCTTGACGCTGCTG", "ASSIGNED CATEGORY": "condition not met"}
{"SEQUENCE CONTENT": "CCGATTAACATCAGGATTGCCCCTGATGTTAATCGGGTCTTGATTCGCTTGACGCTGCTG", "ASSIGNED CATEGORY": "condition met"}

Is the reported binding signal for CCGATTAACATCAGATTTTTCCCTGATGTTAATCGGGTCTTGATTCGCTTGACGCTGCTG strictly below 4 z-score? condition not met

Below 4 z-score on binding signal? Entry CCGATTAACATCAAGGGGGGATATGATGTTAATCGGGTCTTGATTCGCTTGACGCTGCTG condition not met

Quick check: binding signal of CCGATTAACATCAGAAATGCCCCTGATGTTAATCGGGTCTTGATTCGCTTGACGCTGCTG under 4 z-score? condition met

Does the reported binding signal of CCGATTAACATCAGACCTTCCCCTGATGTTAATCGGGTCTTGATTCGCTTGACGCTGCTG stay below 4 z-score? condition not met

Does the reported binding signal of the following sequence sit strictly below 4 z-score? CCGATTAACATCACATTATCCCCTGATGTTAATCGGGTCTTGATTCGCTTGACGCTGCTG condition not met

Quick check: does CCGATTAACATCAAGCTCTAAGGTGATGTTAATCGGGTCTTGATTCGCTTGACGCTGCTG have binding signal under 4 z-score? condition met

Record CCGATTAACATCAGGTTTTTCCATGATGTTAATCGGGTCTTGATTCGCTTGACGCTGCTG : is its binding signal strictly below 4 z-score? condition met

Threshold test, binding signal < 4 z-score: CCGATTAACATCAGGGGACTATATGATGTTAATCGGGTCTTGATTCGCTTGACGCTGCTG condition not met

* * *

Task for the reader: assign each of the following sequences its reported binding signal.
- TARGET OF ASSAY: GST-Nv-NF-kB (Ser allele) (Nematostella vectensis, UniProt A7UNT2 2-411)
- Sequence: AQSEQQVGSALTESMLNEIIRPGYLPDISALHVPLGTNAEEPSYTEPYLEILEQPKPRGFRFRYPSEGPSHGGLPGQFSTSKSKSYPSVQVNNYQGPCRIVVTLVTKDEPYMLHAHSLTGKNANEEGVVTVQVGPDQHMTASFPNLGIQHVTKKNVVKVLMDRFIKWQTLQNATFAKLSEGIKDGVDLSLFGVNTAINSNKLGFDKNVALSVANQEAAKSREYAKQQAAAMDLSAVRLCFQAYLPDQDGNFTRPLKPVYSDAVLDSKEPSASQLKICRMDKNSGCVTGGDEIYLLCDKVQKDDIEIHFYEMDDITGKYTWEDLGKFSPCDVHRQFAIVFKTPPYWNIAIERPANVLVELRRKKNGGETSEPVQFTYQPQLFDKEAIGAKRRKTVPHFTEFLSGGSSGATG
- PROTOCOL DESCRIPTION: protein-binding microarray (PBM); PBM: ~300 nM protein, 6 mM HEPES pH 7.8, 80 mM KCl, 0.5 mM EDTA, 0.5 mM EGTA, 6% glycerol, 35 ng/ul poly-dIdC, 1% milk, 1 h, room temperature; Ap Aiptasia and Nv Nematostella (sea anemones) / Co Capsaspora / Aq Amphimedon (sponge) / Dm Drosophila / Hu human; RHD is the Rel homology domain; high values mean tight binding
- EXPERIMENTAL SETUP: dsDNA, one strand shown
One number for each entry, in z-score.

{"SEQUENCE CONTENT": "CCGATTAACATCAAAGAAGCCCCTGATGTTAATCGGGTCTTGATTCGCTTGACGCTGCTG", "MEASURED ATTRIBUTE": "binding signal", "OBSERVED VALUE": 4.95}
{"SEQUENCE CONTENT": "CCGATTAACATCAATTTTCCCAATGATGTTAATCGGGTCTTGATTCGCTTGACGCTGCTG", "MEASURED ATTRIBUTE": "binding signal", "OBSERVED VALUE": 4.62}
{"SEQUENCE CONTENT": "CCGATTAACATCAGGGGTTTTACTGATGTTAATCGGGTCTTGATTCGCTTGACGCTGCTG", "MEASURED ATTRIBUTE": "binding signal", "OBSERVED VALUE": 4.36}
{"SEQUENCE CONTENT": "CCGATTAACATCAGGGGTATAACTGATGTTAATCGGGTCTTGATTCGCTTGACGCTGCTG", "MEASURED ATTRIBUTE": "binding signal", "OBSERVED VALUE": 1.03}

Here is another sequence to look at.
State its binding signal for this sequence: CCGATTAACATCAGGATCTTCCCTGATGTTAATCGGGTCTTGATTCGCTTGACGCTGCTG 1.87
